- EXPERIMENT SUMMARY: coupled detection enzyme interference, dose response, artefact control for MgcRacGAP inhibitor project, biochemical, coupled enzyme counter-screen (AID 624351);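 further: signal is the ADP detection kit reading of free GDP without any GAP enzyme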
- CONDITION: ADP Hunter coupled enzyme counter-screen, fluorescence, no MgcRacGAP; series mostly up to 80 µM
Hit rate of the full screen: of about 2,400 compounds, about 1,400 (58%) were called active.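 How the source made its calls: active means inhibition of 30% or more at any tested dose; inconclusive means primary hits over the limit that were never retested; inactive means the rest.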 So high a share suggests a set chosen from earlier hits. Some of the results follow.
Pick one and only one: yes for active, no for inactive

Call for entry COc1cccc(CNCc2ccccc2Br)c1OC : no

For COc1cc(/C=C/C(=O)OCC(=O)N2CCN(C(=O)c3ccco3)CC2)ccc1O , what call appears in the results of this test? yes

Could you check what this test reported for Cc1ccc(Nc2n[nH]c(=S)s2)cc1F ? yes

I'd appreciate the recorded outcome for COc1cc(Br)c(CNc2cc(C)ccc2C)cc1OC from this test. no

Hi team, can someone confirm the assay call for CC(C)Nc1ccc(Nc2ccnc3cc4ccccc4cc23)cc1 ? yes

# outcome recorded in this test, key = Cn1c(N/N=C/c2c[nH]c3ccccc23)nc2ccccc21 yes

Write down the call the test reported for this compound. Item: C/C(=N\Nc1nc2ccccc2[nH]1)c1ccc(Cl)s1 yes

What is the recorded call for this compound in the test? O=C(/C=C/Nc1ccc(Nc2ccccc2)cc1)c1cccs1 no

Give the logged outcome of this assay for the following compound: COc1ccc(C(=O)N2CCN(CCCc3ccccc3)CC2)cc1OC no

Called result for COc1cc(-c2cc(-c3ccc(O)cc3)nc(N)c2C#N)ccc1O yes

What call does the record list for CN(C)CCCN1c2ccc(O)cc2Sc2ccc(Cl)cc21 ? yes

Kindly provide the recorded test outcome for the following compound: Cc1ccc(Nc2n[nH]c(=S)s2)cc1 yes

Hi, do you know how C/C(=N\Nc1nc2ccccc2[nH]1)c1ccc(C)o1 came out in this test? yes

Data provenance: PubChem BioAssay AID624351
